Biological target: TYK2 JH2 domain (Homo sapiens (Human), UniProt P29597)
Sequence (P29597 589-875): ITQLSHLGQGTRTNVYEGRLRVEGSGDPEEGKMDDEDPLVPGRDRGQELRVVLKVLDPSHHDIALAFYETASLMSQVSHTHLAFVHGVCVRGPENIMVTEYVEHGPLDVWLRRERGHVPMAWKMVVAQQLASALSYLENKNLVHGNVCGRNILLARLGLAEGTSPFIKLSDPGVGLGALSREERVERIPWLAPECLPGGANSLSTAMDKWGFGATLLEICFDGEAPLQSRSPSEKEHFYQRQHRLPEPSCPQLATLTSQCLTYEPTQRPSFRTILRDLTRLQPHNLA
Experiment: TYK2 JH2 NanoBRET assay
Assay type: binding
Settings: HEK293T cells, Table 19, read-out: IC50 (nM), TYK2 activity
Reported IC50 by item:

> print(dat)
                                   compound  measured.value
1  COc1c(Nc2cc(Nc3ncccn3)ncc2C(C)=O)cccc1-c1ncn(C)n1 [Compound 7O]    50 to 500 nM
2  COc1c(Nc2cc(NC(=O)C3CC3)ncc2C(C)=O)cccc1-c1ncn(C)n1 [Compound 1A]          < 5 nM

Challenge: So what's the measured IC50 for this one? CCC(=O)Nc1cc(Nc2cccc(-c3ncn(C)n3)c2OC)c(C(C)=O)cn1 [Compound 1H]
Response given: 5 to 50 nM

Challenge: So what's the measured IC50 for this one? COc1c(Nc2cc(Nc3ccnc(C)n3)ncc2C(C)=O)cccc1-c1ncn(C)n1 [Compound 7R]
Response given: < 5 nM

Challenge: So what's the measured IC50 for this one? COC(=O)Nc1cc(Nc2cccc(-c3ncn(C)n3)c2OC)c(C(C)=O)cn1 [Compound 1N]
Response given: 50 to 500 nM

Challenge: So what's the measured IC50 for this one? COc1c(Nc2cc(Nc3cc(C)ncn3)ncc2C(C)=O)cccc1-c1ncn(C)n1 [Compound 7Q]
Response given: < 5 nM

Challenge: So what's the measured IC50 for this one? CCCC(=O)Nc1cc(Nc2cccc(-c3ncn(C)n3)c2OC)c(C(C)=O)cn1 [Compound 1I]
Response given: < 5 nM

Challenge: So what's the measured IC50 for this one? COc1c(Nc2cc(Nc3ccccn3)ncc2C(C)=O)cccc1-c1ncn(C)n1 [Compound 7C]
Response given: < 5 nM

* * *

System: human JAK3 (Homo sapiens (Human)) | Read-out: pIC50
Sequence (P52333 whole entry): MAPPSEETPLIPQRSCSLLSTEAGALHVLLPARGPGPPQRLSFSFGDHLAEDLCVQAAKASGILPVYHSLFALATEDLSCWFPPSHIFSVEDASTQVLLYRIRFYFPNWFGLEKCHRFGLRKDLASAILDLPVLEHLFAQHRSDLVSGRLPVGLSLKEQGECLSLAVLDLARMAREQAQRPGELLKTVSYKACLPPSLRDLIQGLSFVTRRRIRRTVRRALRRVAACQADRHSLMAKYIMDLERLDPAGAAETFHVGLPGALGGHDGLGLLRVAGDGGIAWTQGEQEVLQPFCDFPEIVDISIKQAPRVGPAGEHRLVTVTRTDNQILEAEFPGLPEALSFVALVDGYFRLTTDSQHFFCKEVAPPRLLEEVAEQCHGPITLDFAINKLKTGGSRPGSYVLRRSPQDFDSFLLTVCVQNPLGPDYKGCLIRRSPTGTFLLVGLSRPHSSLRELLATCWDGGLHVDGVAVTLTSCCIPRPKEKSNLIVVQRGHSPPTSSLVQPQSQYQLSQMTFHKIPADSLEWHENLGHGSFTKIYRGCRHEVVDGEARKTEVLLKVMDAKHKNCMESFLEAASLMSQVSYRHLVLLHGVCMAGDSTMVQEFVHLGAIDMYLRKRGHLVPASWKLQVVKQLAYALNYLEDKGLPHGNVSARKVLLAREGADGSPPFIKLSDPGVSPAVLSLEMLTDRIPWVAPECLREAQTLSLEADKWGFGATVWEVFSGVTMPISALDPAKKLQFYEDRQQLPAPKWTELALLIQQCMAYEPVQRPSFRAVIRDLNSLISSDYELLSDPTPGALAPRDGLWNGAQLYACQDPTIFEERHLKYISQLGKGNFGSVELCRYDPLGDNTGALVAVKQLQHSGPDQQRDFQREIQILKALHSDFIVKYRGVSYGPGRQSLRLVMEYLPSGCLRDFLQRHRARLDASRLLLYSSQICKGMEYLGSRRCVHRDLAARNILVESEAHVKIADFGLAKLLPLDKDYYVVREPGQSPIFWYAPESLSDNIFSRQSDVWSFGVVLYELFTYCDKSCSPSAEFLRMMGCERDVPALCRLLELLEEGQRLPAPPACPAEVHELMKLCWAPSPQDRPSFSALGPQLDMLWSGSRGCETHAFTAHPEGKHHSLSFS
pIC50: −log10 of the molar value.

Solved entries (count: 6):
> print(dat)
                                   compound  measured.value
1  CCC(=O)c1cnc(Nc2cc(OCCOC)n(C)n2)cc1Nc1cccc(-c2ncn(C)n2)c1OC [Compound 24A]    6.30 to 7.30
2  CCC(=O)c1cnc(NC(=O)[C@@H]2C[C@H]2CC#N)cc1Nc1cccc(-c2ncn(C)n2)c1OC [Compound 22L]          ≤ 6.30
3  CCC(=O)c1cnc(Nc2ncc(-n3ccccc3=O)cc2F)cc1Nc1cccc(-c2ncn(C)n2)c1OC [Compound 15AA]          ≤ 6.30
4  CCC(=O)c1cnc(Nc2cc(CN3CCCC3)ccn2)cc1Nc1cccc(-c2ncn(C)n2)c1OC    6.30 to 7.30
5  CCC(=O)c1cnc(Nc2ccn(CCOC)n2)cc1Nc1cccc(-c2ncn(C)n2)c1OC [Compound 21B]          ≤ 6.30
6  CCC(=O)c1cnc(Nc2ncc(OCC3COC3)cc2F)cc1Nc1cccc(-c2ncn(C)n2)c1OC          ≤ 6.30

Now for another entry.
Challenge: For the record CCC(=O)c1cnc(NC(=O)CC2CCN(C)CC2)cc1Nc1cccc(-c2ncn(C)n2)c1OC [Compound 23A] , what value of pIC50 is listed for human JAK3 (Homo sapiens (Human))?
Response given: ≤ 6.30

* * *

Biological target: TYK2 JH2 domain (Homo sapiens (Human))
Assay: TYK2 JH2 NanoBRET assay
Type: binding
Conditions: Table 20, read-out: TYK2 IC50
Reported IC50 by item:

> print(dat)
                                   compound  measured.value
1  CCC(=O)c1cnc(Nc2ccc(S(C)(=O)=O)cn2)cc1Nc1cccc(CO)c1OC [Compound 13P]      5 to 50 nM

Challenge: So what's the measured IC50 for this one? CCC(=O)c1cnc(Nc2ccn(-c3ccccc3)c(=O)n2)cc1Nc1cccc(-c2ncn(C)n2)c1OC [Compound 20A]
Response given: < 5 nM

Challenge: So what's the measured IC50 for this one? CCC(=O)c1cnc(Nc2cc(CCN3CCCC3)ncn2)cc1Nc1cccc(-c2ncn(C)n2)c1OC [Compound 11G]
Response given: < 5 nM

Challenge: So what's the measured IC50 for this one? CCC(=O)c1cnc(Nc2ccc(OC3CN(C)C3)cn2)cc1Nc1cccc(-c2ncn(C)n2)c1OC [Compound 18U]
Response given: < 5 nM

Challenge: So what's the measured IC50 for this one? CCC(=O)c1cnc(Nc2cnc(OCCN3CCC(F)(F)C3)cn2)cc1Nc1cccc(-c2ncn(C)n2)c1OC [Compound 18ZZ]
Response given: 5 to 50 nM

Challenge: So what's the measured IC50 for this one? CCC(=O)c1cnc(Nc2cnc(OCCN3CCCC3)cn2)cc1Nc1cccc(-c2ncn(C)n2)c1OC [Compound 18VV]
Response given: < 5 nM

Challenge: So what's the measured IC50 for this one? CCC(=O)c1cnc(Nc2ccn(CCN3CCCC3)n2)cc1Nc1cccc(-c2ncn(C)n2)c1OC [Compound 21C]
Response given: 5 to 50 nM

* * *

System: UniProt:P52333 | Read-out: IC50

> print(dat)
                                   compound    study.target  measured.value
1  CCC(=O)c1cnc(Nc2cnc(CN3CCCC3)cn2)cc1Nc1cccc(-c2ncn(C)n2)c1OC [Compound 9AAAA]  UniProt:P52333        ≥ 500 nM
2  CCC(=O)c1cnc(Nc2cnc(C(F)(F)CO)cn2)cc1Nc1cccc(-c2ncn(C)n2)c1OC [Compound 19D]  UniProt:P52333        ≥ 500 nM

Challenge: So what's the measured IC50 for this one? CCC(=O)c1cnc(Nc2cnc(OCCCN3CCCC3)cn2)cc1Nc1cccc(-c2ncn(C)n2)c1OC [Compound 18WW]
Response given: ≥ 500 nM

Challenge: So what's the measured IC50 for this one? CCC(=O)c1cnc(Nc2ccc([C@H](C)N3CC[C@H](O)C3)cn2)cc1Nc1cccc(-c2ncn(C)n2)c1OC [Compound 9LL]
Response given: 50 to 500 nM

* * *

Reported pIC50 by item:
Target: TYK2 JH2 domain (Homo sapiens (Human))
Experiment: TYK2 JH2 NanoBRET assay
Assay type: binding
Conditions: Table 20, read-out: TYK2 IC50
Experimental: HEK293T cells were transfected with NanoLuc-TYK2 JH2 Fusion Vector (Promega, customized) using Trans-IT reagent (Mirus, #MIR2700) and incubated for overnight in 37° C. incubator. […] Add 85 µL of cell suspension into white, polypropylene, 96-well plates (Corning, #3600). 90 µL of cells were used for no tracer control samples. […] NanoBRET signal was determined by using the ratio of acceptor signal and donor signal.
pIC50: −log10 of the molar value.

Solved entries (count: 6):
> print(dat)
                                   molecule  measured.value
1  CCC(=O)c1cnc(Nc2ccc(C(=O)N(C)C)cn2)cc1Nc1cccc(-c2ncn(C)n2)c1OC [Compound 8D]          > 8.30
2  CCC(=O)c1cnc(NC(=O)[C@@H]2C[C@H]2CN(C)C)cc1Nc1cccc(-c2ncn(C)n2)c1OC [Compound 22D]    7.30 to 8.30
3  CCC(=O)c1cnc(Nc2cnc(O[C@H]3CN(C)C[C@@H]3F)cn2)cc1Nc1cccc(-c2ncn(C)n2)c1OC [Compound 18AAA]    7.30 to 8.30
4  CCC(=O)c1cnc(Nc2cnc(O[C@H]3CCN(C)C3)cn2)cc1Nc1cccc(-c2ncn(C)n2)c1OC [Compound 18TT]          > 8.30
5  CCC(=O)c1cnc(Nc2ccc(OCCOC)cn2)cc1Nc1cccc(-c2ncn(C)n2)c1OC [Compound 18D]    7.30 to 8.30
6  CCC(=O)c1cnc(Nc2ccc(CN(C)C(C)C)cn2)cc1Nc1cccc(-c2ncn(C)n2)c1OC [Compound 9T]          > 8.30

Challenge: For the record CCC(=O)c1cnc(Nc2cnc(OCCn3ccnc3C)cn2)cc1Nc1cccc(-c2ncn(C)n2)c1OC [Compound 18III] , what value of pIC50 is listed for TYK2 JH2 domain (Homo sapiens (Human))?
Response given: 7.30 to 8.30

* * *

Reported pIC50 by item:
Molecular target: TYK2 JH2 domain (Homo sapiens (Human), UniProt P29597)
Assay: TYK2 JH2 NanoBRET assay
Type: binding
Details: Table 20, read-out: TYK2 IC50
pIC50: −log10 of the molar value.

Solved entries (count: 5):
> print(dat)
                                   compound  measured.value
1  CCC(=O)c1cnc(Nc2ccc(CN(C)C)cn2)cc1Nc1cccc(-c2ncn(C)n2)c1OC          > 8.30
2  CCC(=O)c1cnc(Nc2ccc(S(=O)(=O)C3CC3)cn2)cc1Nc1nccc(-c2ncn(C)n2)c1OC [Compound 13K]    7.30 to 8.30
3  CCC(=O)c1cnc(Nc2cnc(C(F)(F)CNC)cn2)cc1Nc1cccc(-c2ncn(C)n2)c1OC [Compound 19B]    6.30 to 7.30
4  CCC(=O)c1cnc(NC(=O)[C@@H]2C[C@@H]2NC(=O)OC(C)(C)C)cc1Nc1cccc(-c2ncn(C)n2)c1OC [Compound 22J]          ≤ 6.30
5  COc1c(Nc2cc(Nc3ccc(CN(C)C)cn3)ncc2C(=O)C2CC2)cccc1-c1ncn(C)n1    7.30 to 8.30

Challenge: So what's the measured pIC50 for this one? "CCC(=O)c1cnc(Nc2ccc(CN(C)C)cn2)cc1Nc1cccc(-c2ncc(F)cn2)c1OC"
Response given: 7.30 to 8.30

Challenge: So what's the measured pIC50 for this one? CCC(=O)c1cnc(NC(=O)[C@@H]2C[C@@H]2C(N)=O)cc1Nc1cccc(-c2ncn(C)n2)c1OC [Compound 22G]
Response given: ≤ 6.30

Challenge: So what's the measured pIC50 for this one? CCC(=O)c1cnc(Nc2ccc(O[C@H]3COC[C@@H]3O)cn2)cc1Nc1cccc(-c2ncn(C)n2)c1OC [Compound 18R]
Response given: > 8.30
